Just for reference, patent US8735601B2 is where these values come from.

assay: Absorption and emission spectra of dyes in different solvents; assay type: physicochemical; parameters: key: Stokes shift in nm; conditions: Stokes shift to absorption peak 2; solvent Water
attributeMeasured: Δλ2

structuresmilesstring=CCN1/C(=C/C=C/C(=C/C2=[N+](CC)c3ccccc3C2(C)C)N(Cc2ccccc2)Cc2ccccc2)C(C)(C)c2ccccc21 observedmeasurement=171
structuresmilesstring=CCN1/C(=C/C=C/C(N)=C/C2=[N+](CC)c3ccccc3C2(C)C)C(C)(C)c2ccccc21 observedmeasurement=203
structuresmilesstring=CCN1/C(=C/C=C/C(=C/C2=[N+](CC)c3ccccc3C2(C)C)NCc2ccccc2)C(C)(C)c2ccccc21 observedmeasurement=188
structuresmilesstring=CCN1/C(=C/C=C/C(=C/C2=[N+](CC)c3ccccc3C2(C)C)N(CCO)CCO)C(C)(C)c2ccccc21 observedmeasurement=168
structuresmilesstring=CCN1/C(=C/C=C/C(=C/C2=[N+](CC)c3ccccc3C2(C)C)Nc2ccccc2)C(C)(C)c2ccccc21 observedmeasurement=200
structuresmilesstring=CCN(CC)C(=C\C1=[N+](CC)c2ccccc2C1(C)C)/C=C/C=C1/N(CC)c2ccccc2C1(C)C observedmeasurement=152
structuresmilesstring=CCN1/C(=C/C=C/C(=C/C2=[N+](CC)c3ccccc3C2(C)C)NCCO)C(C)(C)c2ccccc21 observedmeasurement=190
